System: CHL cells
Assay: Evaluation of cell toxicity (CCK8 cell viability)
Format: cell-based
Conditions: CHL, 48 h
Overview of reported IC50 across a group of compounds:
Write the value in mg/L as a bare number.

Some solved entries appear below for comparison.
COMPOUND	MEASUREMENT
CCCCCCCCC(CCCCCC)CNC(=O)NCCCCCCCCCCCCN(CCCCO)CCCCCCCCCCCCNC(=O)NCC(CCCCCC)CCCCCCCC (stereo not shown)	136
CCCCCCCCC(CCCCCC)CNC(=O)NCCCCCN(CCCCO)CCCCCNC(=O)NCC(CCCCCC)CCCCCCCC (stereo not shown)	137
CCCCCCCCC(CCCCCC)CNC(=O)NCCCCCCN(CCCCCCCO)CCCCCCNC(=O)NCC(CCCCCC)CCCCCCCC (stereo not shown)	153
CCCCCCC(CCCCCC)CNC(=O)NCCCCCCN(CCCCO)CCCCCCNC(=O)NCC(CCCCCC)CCCCCC	134
CCCCCCCCC(CCCCCC)CNC(=O)NCCCCCCN(CCCO)CCCCCCNC(=O)NCC(CCCCCC)CCCCCCCC (stereo not shown)	126

## Task Need IC50, item CCCCCCCCC(CCCCCC)CNC(=O)NCCCCCCN(CCCCO)CCCCCCNC(=O)NCC(CCCCCC)CCCCCCCC (stereo not shown)
## Result 166

## Task Now consider CCCCCCCCCCCCNC(=O)NCCCCCCN(CCCCO)CCCCCCNC(=O)NCC(CCCCCC)CCCCCCCC (stereo not shown) .
## Result 119
